target: Phosphatidylinositol 4,5-bisphosphate 3-kinase catalytic subunit alpha isoform (Homo sapiens, UniProt P42336); test: Inhibition Assay; conditions: 25 °C
Sequence (P42336 whole entry, canonical isoform): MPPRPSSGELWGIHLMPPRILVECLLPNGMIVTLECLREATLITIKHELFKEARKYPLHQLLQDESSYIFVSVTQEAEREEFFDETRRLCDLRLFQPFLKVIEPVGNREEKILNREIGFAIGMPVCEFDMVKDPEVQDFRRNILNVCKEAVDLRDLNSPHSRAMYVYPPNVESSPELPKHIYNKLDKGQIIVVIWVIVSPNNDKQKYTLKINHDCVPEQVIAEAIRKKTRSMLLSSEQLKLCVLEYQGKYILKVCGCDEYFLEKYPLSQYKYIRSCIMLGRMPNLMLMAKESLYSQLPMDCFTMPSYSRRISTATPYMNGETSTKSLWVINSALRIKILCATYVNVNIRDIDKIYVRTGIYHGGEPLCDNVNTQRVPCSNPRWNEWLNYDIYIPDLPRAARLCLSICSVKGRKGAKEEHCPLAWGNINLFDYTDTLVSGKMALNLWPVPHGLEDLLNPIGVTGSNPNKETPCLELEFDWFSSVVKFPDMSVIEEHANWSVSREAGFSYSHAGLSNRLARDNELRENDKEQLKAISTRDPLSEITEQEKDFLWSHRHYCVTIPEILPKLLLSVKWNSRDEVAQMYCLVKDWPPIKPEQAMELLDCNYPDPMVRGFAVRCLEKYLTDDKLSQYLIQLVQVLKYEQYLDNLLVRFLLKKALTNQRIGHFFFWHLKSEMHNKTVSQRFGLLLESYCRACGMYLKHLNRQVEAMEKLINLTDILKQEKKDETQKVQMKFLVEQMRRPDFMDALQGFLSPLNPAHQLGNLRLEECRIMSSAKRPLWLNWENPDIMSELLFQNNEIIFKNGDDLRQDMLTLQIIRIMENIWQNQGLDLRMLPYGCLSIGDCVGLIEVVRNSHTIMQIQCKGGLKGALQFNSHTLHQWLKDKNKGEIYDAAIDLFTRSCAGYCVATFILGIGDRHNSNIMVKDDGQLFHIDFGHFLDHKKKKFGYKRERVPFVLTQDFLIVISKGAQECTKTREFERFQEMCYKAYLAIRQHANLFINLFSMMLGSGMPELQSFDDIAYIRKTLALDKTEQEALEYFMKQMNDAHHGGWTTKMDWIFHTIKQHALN
Measure: pIC50
One number for each entry, as −log10 of the molar value.

Look at this molecule and give its reported pIC50. COc1ncc(N2CCOc3ccc(O[C@H]4CCN(C(=O)C5COCCO5)C4)cc32)cc1F (stereo partly specified)
6.33
